The entries below come with measured pEC50 values attached.
biological target: hNPRA (Homo sapiens); assay: NPRA Functional Cell Assay (cGMP HTRF, NPRA HEK JumpIn stable cells); details: cGMP production, 1 hour at 37° C., 10-point dose response
pEC50: −log10 of the molar value.

{"COMPOUND": "CC(C)(C)[C@H]1CCc2nc3sc(C(=O)N[C@H](CCN4CCC(O)CC4)c4ccc(-c5csc(C(=O)O)c5)cc4)nc3cc2C1 (racemic)", "pEC50": 6.43}
{"COMPOUND": "CN1CC(NC(=O)c2cccc([C@@H](CCN3CCC(c4nnn[nH]4)CC3)NC(=O)c3nc4cc5c(nc4s3)CC[C@H](C(C)(C)C)C5)c2)C1 (racemic)", "pEC50": 6.80}
{"COMPOUND": "CC(C)(C)[C@H]1CCc2nc3sc(C(=O)N[C@H](CCN4CCCCC4)c4ccc(-c5cn[nH]c5)cc4)cc3cc2C1 (racemic)", "pEC50": 6.11}
{"COMPOUND": "CC(C)(C)[C@H]1CCc2nc3sc(C(=O)N[C@H](CCN4CCC4)c4cccc(NS(C)(=O)=O)c4)cc3cc2C1 (racemic)", "pEC50": 5.78}
{"COMPOUND": "CC(C)(C)[C@H]1CCc2nc3sc(C(=O)N[C@H](CCN[C@H]4C[C@H](O)C4)c4ccccc4)cc3cc2C1", "pEC50": 5.70}
{"COMPOUND": "CC(C)(C)[C@H]1CCc2nc3sc(C(=O)N[C@H](CCN4CCC(O)C4)c4ccc(-c5ccc(=O)[nH]c5)cc4)nc3cc2C1 (mixture of isomers)", "pEC50": 6.16}
{"COMPOUND": "CC(C)(C)[C@H]1CCc2nc3sc(C(=O)N[C@H](CCN4CCC(O)CC4)c4ccc(Oc5ccc(O)cc5)nc4)nc3cc2C1 (racemic)", "pEC50": 5.82}
{"COMPOUND": "CC(C)(C)[C@H]1CCc2nc3sc(C(=O)N[C@H](CCN[C@H]4C[C@@H](CO)[C@H](O)[C@@H]4O)c4ccc(-c5ccc(=O)[nH]c5)cc4)cc3cc2C1 (racemic)", "pEC50": 6.41}
{"COMPOUND": "CC(C)(C)[C@H]1CCc2nc3sc(C(=O)N[C@H](CCN)c4cccc(C(=O)N[C@H]5CCNC5)c4)cc3cc2C1", "pEC50": 6.53}
{"COMPOUND": "CN(C)CC[C@@H](NC(=O)c1nc2cc3c(nc2s1)CC[C@H](C(C)(C)C)C3)c1cccc(C(=O)NCCN)c1 (racemic)", "pEC50": 6.46}
{"COMPOUND": "CC(C)(C)[C@H]1CCc2nc3sc(C(=O)N[C@H](CCN4CCC(O)CC4)c4ccc(-c5cnc(=O)[nH]c5)cc4)nc3cc2C1 (racemic)", "pEC50": 6.34}
{"COMPOUND": "CN(C)S(=O)(=O)Nc1ccc([C@@H](CCN2CC=CCC2)NC(=O)c2nc3cc4c(nc3s2)CC[C@H](C(C)(C)C)C4)cn1 (racemic) [Example 208, 2,2,2-trifluoroacetate]", "pEC50": 6.15}

---

biological target: hNPRA (Homo sapiens, UniProt P16066); assay: NPRA Functional Cell Assay (cGMP HTRF, NPRA HEK JumpIn stable cells); conditions: cGMP production, 1 hour at 37° C., 10-point dose response
Sequence (P16066 33-1061): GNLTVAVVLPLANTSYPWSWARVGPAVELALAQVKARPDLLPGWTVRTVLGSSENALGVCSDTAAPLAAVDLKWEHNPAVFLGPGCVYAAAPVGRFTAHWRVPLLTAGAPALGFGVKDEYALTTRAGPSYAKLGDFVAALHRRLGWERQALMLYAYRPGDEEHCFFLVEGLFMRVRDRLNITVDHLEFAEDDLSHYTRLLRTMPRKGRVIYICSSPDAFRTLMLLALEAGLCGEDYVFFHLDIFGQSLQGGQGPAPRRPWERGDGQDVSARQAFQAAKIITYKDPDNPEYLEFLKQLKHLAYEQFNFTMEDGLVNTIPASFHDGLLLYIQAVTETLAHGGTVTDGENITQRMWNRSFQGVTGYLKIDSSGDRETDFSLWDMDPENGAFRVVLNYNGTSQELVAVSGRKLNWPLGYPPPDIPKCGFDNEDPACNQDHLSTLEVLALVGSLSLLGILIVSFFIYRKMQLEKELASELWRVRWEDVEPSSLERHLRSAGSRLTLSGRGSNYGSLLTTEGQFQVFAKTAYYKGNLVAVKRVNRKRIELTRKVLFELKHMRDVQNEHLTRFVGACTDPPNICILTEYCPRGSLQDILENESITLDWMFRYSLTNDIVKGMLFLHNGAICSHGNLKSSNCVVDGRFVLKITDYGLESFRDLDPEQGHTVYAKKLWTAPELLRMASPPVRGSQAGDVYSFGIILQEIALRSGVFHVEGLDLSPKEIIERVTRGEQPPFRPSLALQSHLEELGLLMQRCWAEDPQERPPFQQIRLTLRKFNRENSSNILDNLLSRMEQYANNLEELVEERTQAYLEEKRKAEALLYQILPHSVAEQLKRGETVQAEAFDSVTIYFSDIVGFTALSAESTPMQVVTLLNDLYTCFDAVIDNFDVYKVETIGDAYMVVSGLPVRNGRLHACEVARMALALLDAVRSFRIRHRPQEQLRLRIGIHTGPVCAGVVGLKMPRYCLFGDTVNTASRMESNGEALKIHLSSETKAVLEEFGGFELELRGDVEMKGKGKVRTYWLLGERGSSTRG
Counter-ions that a name gives are not always drawn.
Lab note: anything with EC50 below 2 µM is marked 1 (yes); values at 2 µM or higher are marked 0 (no).

{"COMPOUND": "CC(C)(C)[C@H]1CCc2nc3sc(C(=O)N[C@H](CCN4CCCCC4)c4ccc(-c5cnc(O)c(N)c5)cc4)cc3cc2C1", "CATEGORY_LABEL": "1 (yes)"}
{"COMPOUND": "CC(C)(C)[C@H]1CCc2nc3sc(C(=O)NC(CCN4CCOCC4)c4ccccc4)cc3cc2C1 (stereo partly drawn)", "CATEGORY_LABEL": "0 (no)"}
{"COMPOUND": "CC(C)(C)[C@H]1CCc2nc3sc(C(=O)N[C@H](CCN4CCC(O)CC4)c4ccc(N5CC(=O)NC5=O)nc4)nc3cc2C1", "CATEGORY_LABEL": "1 (yes)"}
{"COMPOUND": "CC(C)(C)[C@H]1CCc2nc3sc(C(=O)N[C@H](CCN4CCC(O)CC4)c4ccc(-c5cncs5)cc4)nc3cc2C1 (racemic) [Example 185, trifluoroacetate]", "CATEGORY_LABEL": "1 (yes)"}
{"COMPOUND": "CN(C)S(=O)(=O)Nc1ccc([C@@H](CCN2CCNC(=O)CC2)NC(=O)c2nc3cc4c(nc3s2)CC[C@H](C(C)(C)C)C4)cn1 (racemic) [Example 215, 2,2,2-trifluoroacetate]", "CATEGORY_LABEL": "1 (yes)"}
{"COMPOUND": "CC(C)(C)[C@H]1CCc2nc3sc(C(=O)N[C@H](CCN4CCC(C(=O)O)CC4)c4ccc(-c5ccc(=O)[nH]c5)cc4)cc3cc2C1 (racemic)", "CATEGORY_LABEL": "1 (yes)"}

---

The entries below come with measured pEC50 values attached.
Biological target: hNPRA (Homo sapiens, UniProt P16066)
Experiment: NPRA Functional Cell Assay (cGMP HTRF, NPRA HEK JumpIn stable cells)
Conditions: cGMP production, 1 hour at 37° C., 10-point dose response
Procedure: NPRA Functional Cell Assay Assay Buffer components HEPES and Opti-MEM® I Reduced-Serum with Glutamine (no phenol red) were from Gibco/Invitrogen (Thermo Fisher Scientific, Waltham, MA USA). […] The assay ready frozen (ARF) Human/rat/dog NPRA HEK JumpIn Stable frozen cells (low passage number 5-11) were prepared in-house. […] hNPRA EC50 (nM) were determined for the compounds of Example 1 through Example 273 and are reported in the Experimental section of this application.
pEC50: −log10 of the molar value. Where a name gives a salt, the structure may show the parent alone.
RESULT_TYPE: pEC50

{"COMPOUND": "O=C(N[C@H](CCN1CCC(O)CC1)c1ccc(N2CCOC2=O)cc1)c1nc2cc3c(nc2s1)CC[C@H](C1(C(F)(F)F)CC1)C3", "OBS_VALUE": 5.66}
{"COMPOUND": "CC(C)(C)[C@H]1CCc2nc3sc(C(=O)N[C@H](CCN4CCC(O)CC4)c4ccc(-c5ncc(O)cc5F)cc4)nc3cc2C1 (racemic) [Example 181, trifluoroacetate]", "OBS_VALUE": 5.84}
{"COMPOUND": "CN(C)C1CCN(CCC(NC(=O)c2cc3cc4c(nc3s2)CCC(C(C)(C)C)C4)c2ccc(-c3ccc(=O)[nH]c3)cc2)CC1 (racemic)", "OBS_VALUE": 6.35}
{"COMPOUND": "CC(C)(C)[C@H]1CCc2nc3sc(C(=O)N[C@H](CCNC4(CO)CCC4)c4cccc(NS(C)(=O)=O)c4)cc3cc2C1 (racemic)", "OBS_VALUE": 6.03}
{"COMPOUND": "CN1C(=O)OCC12CN(C(=O)c1cccc([C@@H](CCN3CCC(O)CC3)NC(=O)c3nc4cc5c(nc4s3)CC[C@H](C(C)(C)C)C5)c1)C2 (racemic)", "OBS_VALUE": 6.34}
{"COMPOUND": "CC(C)(C)[C@H]1CCc2nc3sc(C(=O)N[C@H](CCN4CCC(O)CC4)c4ccc(-c5ccc(=O)[nH]c5)cc4)nc3cc2C1 (racemic) [Example 79, formate]", "OBS_VALUE": 6.57}
{"COMPOUND": "CN1CC(NC(=O)c2cccc([C@@H](CCN3CCC(O)CC3)NC(=O)c3nc4cc5c(nc4s3)CC[C@H](C(C)(C)C)C5)c2)CC1=O (mixture of isomers)", "OBS_VALUE": 6.18}
{"COMPOUND": "Cc1nc(O)ccc1-c1ccc([C@@H](CCN2CCCCC2)NC(=O)c2cc3cc4c(nc3s2)CC[C@H](C(C)(C)C)C4)cc1", "OBS_VALUE": 5.78}
{"COMPOUND": "CC(C)(C)[C@H]1CCc2nc3sc(C(=O)NC(CCN4CCNCC4)c4ccccc4)cc3cc2C1 (stereo partly drawn)", "OBS_VALUE": 5.20}
{"COMPOUND": "CC(C)(C)[C@H]1CCc2nc3sc(C(=O)N[C@H](CCN4CCC(CO)CC4)c4ccccc4)cc3cc2C1", "OBS_VALUE": 5.53}
{"COMPOUND": "CCN(CC)CCC(NC(=O)c1cc2cc3c(nc2s1)CC[C@H](C(C)(C)C)C3)c1ccccc1 (stereo partly drawn)", "OBS_VALUE": 5.66}
{"COMPOUND": "CN1CC[C@@H](NC(=O)c2cccc([C@@H](CCN3CCC(O)CC3)NC(=O)c3nc4cc5c(nc4s3)CC[C@H](C(C)(C)C)C5)c2)C1 (racemic)", "OBS_VALUE": 6.90}
{"COMPOUND": "CC(C)(C)[C@H]1CCc2nc3sc(C(=O)N[C@H](CCN4CCC(O)CC4)c4ccc(-c5ccc(OCCF)nc5)cc4)nc3cc2C1 (racemic)", "OBS_VALUE": 5.93}
{"COMPOUND": "CN1CC(NC(=O)c2cccc([C@@H](CCN3CCC(c4ccc(C(=O)O)cc4)CC3)NC(=O)c3nc4cc5c(nc4s3)CC[C@H](C(C)(C)C)C5)c2)C1 (racemic)", "OBS_VALUE": 6.50}
{"COMPOUND": "CC(C)(C)[C@@H]1CCc2nc3sc(C(=O)N[C@H](CCN4CCC(c5nn[nH]n5)CC4)c4ccc(-c5cnc(O)c(F)c5)cc4)nc3cc2C1", "OBS_VALUE": 5.96}
{"COMPOUND": "CC(C)(C)[C@H]1CCc2nc3sc(C(=O)N[C@H](CCN4CCC(N)CC4)c4ccc(-c5cnc(O)c(F)c5)cc4)nc3cc2C1 (racemic) [Example 198, formate]", "OBS_VALUE": 6.66}
{"COMPOUND": "CC(C)(C)[C@H]1CCc2nc3sc(C(=O)N[C@H](CCN4CCC(O)CC4)c4cccc(C(=O)NCCO)c4)nc3cc2C1 (racemic)", "OBS_VALUE": 6.17}
{"COMPOUND": "CN(C)CC[C@@H](NC(=O)c1nc2cc3c(nc2s1)CC[C@H](C(C)(C)C)C3)c1cccc(C(=O)NCCO)c1 (racemic)", "OBS_VALUE": 6.16}
{"COMPOUND": "CN1CCCC(NC(=O)c2cccc([C@@H](CCN3CCC(O)CC3)NC(=O)c3nc4cc5c(nc4s3)CC[C@H](C(C)(C)C)C5)c2)C1 (mixture of isomers)", "OBS_VALUE": 6.65}
{"COMPOUND": "CC(C)(C)[C@H]1CCc2nc3sc(C(=O)N[C@H](CCN4CCC(O)CC4)c4ccc(OCCO)nc4)nc3cc2C1 (racemic)", "OBS_VALUE": 6.18}
{"COMPOUND": "CC(C)(C)[C@H]1CCc2nc3sc(C(=O)N[C@H](CCN4CCCC5(CC5)C4)c4ccc(-c5ccc(=O)[nH]c5)cc4)cc3cc2C1 (racemic)", "OBS_VALUE": 6.17}
{"COMPOUND": "CC(C)(C)[C@H]1CCc2nc3sc(C(=O)N[C@H](CCN4CCC(O)CC4)c4cccc(N5CCOC5=O)c4)nc3cc2C1 (racemic)", "OBS_VALUE": 5.78}
{"COMPOUND": "CC(C)(C)[C@H]1CCc2nc3sc(C(=O)N[C@H](CCN4CCC(O)CC4)c4ccc(-c5cn[nH]c5)nc4)nc3cc2C1 (racemic)", "OBS_VALUE": 6.52}
{"COMPOUND": "CC1(C)CN(CC[C@@H](NC(=O)c2nc3cc4c(nc3s2)CC[C@H](C(C)(C)C)C4)c2ccc(-c3ccc(=O)[nH]c3)cc2)C1 (racemic)", "OBS_VALUE": 6.17}
